Data credit: patent US5747466A

# Tested on: STAPHYLOCOCCUS AUREUS A5177
# experimentalProtocol: In vitro antibacterial activity (MIC), agar dilution
# Assay type: cell-based
# testParameters: S. aureus A5177; BHI agar, 35-37 °C, 20-24 h
Reported minimum inhibitory concentration (MIC) is given for each of the following compounds.

| compound | minimum inhibitory concentration (MIC) |
| --- | --- |
| CC[C@H]1OC(=O)[C@H](C)C[C@H](C)[C@@H](O[C@@H]2O[C@H](C)C[C@H](N(C)C)[C@H]2O)[C@](C)(OC)C[C@@H](C)C(=O)[C@H](C)[C@H]2N(CCc3ccc(Oc4ccccc4)cc3)C(=O)O[C@]12C | 6.2 |
| CC[C@H]1OC(=O)[C@H](C)C[C@H](C)[C@@H](O[C@@H]2O[C@H](C)C[C@H](N(C)C)[C@H]2O)[C@](C)(OC)C[C@@H](C)C(=NOCOCCOC)[C@H](C)[C@@H](O)[C@]1(C)O | 1.56 |
| CC[C@H]1OC(=O)[C@H](C)[C@@H](O[C@H]2C[C@@](C)(OC)[C@@H](O)[C@H](C)O2)[C@H](C)[C@@H](O[C@@H]2O[C@H](C)C[C@H](N(C)C)[C@H]2O)[C@](C)(O)C[C@@H](C)C(=O)[C@H](C)[C@@H](O)[C@]1(C)O [Ery A, Erythromycin A, reference compound] | 1.56 |
| CC[C@H]1OC(=O)[C@H](C)C[C@H](C)[C@@H](O[C@@H]2O[C@H](C)C[C@H](N(C)C)[C@H]2O)[C@](C)(OC)C[C@@H](C)C(=O)[C@H](C)[C@H]2N(CCCCc3ccccc3)C(=O)O[C@]12C | 1.56 |

---

Reported minimum inhibitory concentration (MIC) is given for each of the following molecules.
# System: PSEUDOMONAS AERUGINOSA K799/WT
# experimentalProtocol: In vitro antibacterial activity (MIC), agar dilution
# Assay type: cell-based
# testParameters: P. aeruginosa K799/WT; BHI agar, 35-37 °C, 20-24 h

| molecule | minimum inhibitory concentration (MIC) |
| --- | --- |
| CC[C@H]1OC(=O)[C@H](C)[C@@H](O[C@H]2C[C@@](C)(OC)[C@@H](O)[C@H](C)O2)[C@H](C)[C@@H](O[C@@H]2O[C@H](C)C[C@H](N(C)C)[C@H]2O)[C@](C)(O)C[C@@H](C)C(=O)[C@H](C)[C@@H](O)[C@]1(C)O [Ery A, Erythromycin A, reference compound] | 100 |
| CC[C@H]1OC(=O)[C@H](C)C[C@H](C)[C@@H](O[C@@H]2O[C@H](C)C[C@H](N(C)C)[C@H]2O)[C@](C)(OC)C[C@@H](C)C(=O)[C@H](C)[C@H]2OC(=O)O[C@@]21C | > 100 |
| CC[C@H]1OC(=O)[C@H](C)C[C@H](C)[C@@H](O[C@@H]2O[C@H](C)C[C@H](N(C)C)[C@H]2O)[C@](C)(OC)C[C@@H](C)C(=O)[C@H](C)[C@H]2N(CCc3ccc(Oc4ccccc4)cc3)C(=O)O[C@]12C | > 100 |
| CC[C@H]1OC(=O)[C@H](C)C[C@H](C)[C@@H](O[C@@H]2O[C@H](C)C[C@H](N(C)C)[C@H]2O)[C@](C)(OC)C[C@@H](C)C(=O)[C@H](C)[C@H]2N(CCCCc3ccccc3)C(=O)O[C@]12C | 100 |
| CC[C@H]1OC(=O)[C@H](C)C[C@H](C)[C@@H](O[C@@H]2O[C@H](C)C[C@H](N(C)C)[C@H]2O)[C@](C)(OC)C[C@@H](C)C(=NOCOCCOC)[C@H](C)[C@@H](O)[C@]1(C)O | 100 |

---

Reported minimum inhibitory concentration (MIC) is given for each of the following compounds.
# Test system: ESCHERICHIA COLI H560
# experimentalProtocol: In vitro antibacterial activity (MIC), agar dilution
# Assay type: cell-based
# testParameters: E. coli H560; BHI agar, 35-37 °C, 20-24 h

| compound | minimum inhibitory concentration (MIC) |
| --- | --- |
| CC[C@H]1OC(=O)[C@H](C)C[C@H](C)[C@@H](O[C@@H]2O[C@H](C)C[C@H](N(C)C)[C@H]2O)[C@](C)(OC)C[C@@H](C)C(=NO)[C@H](C)[C@@H](O)[C@]1(C)O [Ex. 2] | > 100 |
| CC[C@H]1OC(=O)[C@H](C)C[C@H](C)[C@@H](O[C@@H]2O[C@H](C)C[C@H](N(C)C)[C@H]2O)[C@](C)(OC)C[C@@H](C)C(=O)[C@H](C)[C@H]2OC(=O)O[C@@]21C [Ex. 3] | > 100 |
| CC[C@H]1OC(=O)[C@H](C)C[C@H](C)[C@@H](O[C@@H]2O[C@H](C)C[C@H](N(C)C)[C@H]2O)[C@](C)(OC)C[C@@H](C)C(=O)[C@H](C)[C@H]2N(CCc3ccc(Oc4ccccc4)cc3)C(=O)O[C@]12C [Ex. 5] | > 100 |
